Hello, the source for this data is ChEMBL document CHEMBL1828613, in case you need it.

Hi there, I'd appreciate the recorded IC50 for every entry that follows.
experimental.target: Histone-lysine N-methyltransferase EHMT2 (Homo sapiens)
Sequence (Q96KQ7 whole entry): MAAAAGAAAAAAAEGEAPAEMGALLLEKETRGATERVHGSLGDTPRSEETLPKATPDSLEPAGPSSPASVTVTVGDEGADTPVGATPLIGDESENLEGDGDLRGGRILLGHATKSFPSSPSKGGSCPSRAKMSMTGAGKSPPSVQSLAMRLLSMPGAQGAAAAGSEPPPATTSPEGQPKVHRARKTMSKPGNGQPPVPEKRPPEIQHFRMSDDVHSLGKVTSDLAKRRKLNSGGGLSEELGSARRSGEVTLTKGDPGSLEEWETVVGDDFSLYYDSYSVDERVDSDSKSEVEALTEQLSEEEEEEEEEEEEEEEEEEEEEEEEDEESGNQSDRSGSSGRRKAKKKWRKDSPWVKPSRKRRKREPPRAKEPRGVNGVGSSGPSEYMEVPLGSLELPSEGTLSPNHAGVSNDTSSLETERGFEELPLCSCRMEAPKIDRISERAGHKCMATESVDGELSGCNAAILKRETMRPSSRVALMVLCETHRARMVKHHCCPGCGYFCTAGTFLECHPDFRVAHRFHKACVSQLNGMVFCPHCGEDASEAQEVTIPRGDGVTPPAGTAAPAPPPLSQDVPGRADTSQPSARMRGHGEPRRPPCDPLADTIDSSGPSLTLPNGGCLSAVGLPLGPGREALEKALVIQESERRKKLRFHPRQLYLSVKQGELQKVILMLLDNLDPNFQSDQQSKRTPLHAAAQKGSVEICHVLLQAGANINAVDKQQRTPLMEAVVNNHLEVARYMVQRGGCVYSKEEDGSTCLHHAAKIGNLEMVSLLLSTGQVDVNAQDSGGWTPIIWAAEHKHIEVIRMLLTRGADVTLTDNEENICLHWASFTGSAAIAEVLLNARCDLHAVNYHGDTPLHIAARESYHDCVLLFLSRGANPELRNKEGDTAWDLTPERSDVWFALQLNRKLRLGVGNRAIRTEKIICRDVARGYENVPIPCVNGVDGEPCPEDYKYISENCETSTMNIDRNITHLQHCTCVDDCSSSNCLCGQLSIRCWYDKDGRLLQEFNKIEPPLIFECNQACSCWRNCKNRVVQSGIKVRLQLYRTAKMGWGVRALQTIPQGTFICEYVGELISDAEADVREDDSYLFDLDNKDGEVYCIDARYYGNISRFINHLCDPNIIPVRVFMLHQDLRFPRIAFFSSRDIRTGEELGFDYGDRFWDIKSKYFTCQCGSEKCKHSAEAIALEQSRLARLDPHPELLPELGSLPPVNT
protocol.text: Inhibition of G9a assessed as hydrolysis of S-adenosyl-L-homocysteine after 2 mins by SAHH-coupled fluorescence assay
Give the number; nM is assumed, so skip it.

IC50 of "COc1cc2c(NC3CCN(C(C)C)CC3)nc(N3CCCN(C4CCCCC4)CC3)nc2cc1OCCCN1CCCC1" , assay on Histone-lysine N-methyltransferase EHMT2 (Homo sapiens), is 22

Field IC50 (system: Histone-lysine N-methyltransferase EHMT2 (Homo sapiens)) for entry "COc1cc2c(NC3CCN(C(C)C)CC3)nc(N3CCCN(C(C)C)CC3)nc2cc1OCCCN1CCCCC1" = 8

For the compound "COc1cc2c(NC3CCN(CC4CCCCC4)CC3)nc(N3CCCN(C(C)C)CC3)nc2cc1OCCCN1CCCCC1" , the measured IC50 on Histone-lysine N-methyltransferase EHMT2 (Homo sapiens) was 4

Response field IC50 (Histone-lysine N-methyltransferase EHMT2 (Homo sapiens)) for item "COc1cc2c(NC3CCN(C(C)C)CC3)nc(N3CCCN(c4ccccc4)CC3)nc2cc1OCCCN1CCCC1" : 10
